- subject of test: Mitogen-activated protein kinase 7 (Homo sapiens, UniProt Q13164)
- Sequence (Q13164 whole entry): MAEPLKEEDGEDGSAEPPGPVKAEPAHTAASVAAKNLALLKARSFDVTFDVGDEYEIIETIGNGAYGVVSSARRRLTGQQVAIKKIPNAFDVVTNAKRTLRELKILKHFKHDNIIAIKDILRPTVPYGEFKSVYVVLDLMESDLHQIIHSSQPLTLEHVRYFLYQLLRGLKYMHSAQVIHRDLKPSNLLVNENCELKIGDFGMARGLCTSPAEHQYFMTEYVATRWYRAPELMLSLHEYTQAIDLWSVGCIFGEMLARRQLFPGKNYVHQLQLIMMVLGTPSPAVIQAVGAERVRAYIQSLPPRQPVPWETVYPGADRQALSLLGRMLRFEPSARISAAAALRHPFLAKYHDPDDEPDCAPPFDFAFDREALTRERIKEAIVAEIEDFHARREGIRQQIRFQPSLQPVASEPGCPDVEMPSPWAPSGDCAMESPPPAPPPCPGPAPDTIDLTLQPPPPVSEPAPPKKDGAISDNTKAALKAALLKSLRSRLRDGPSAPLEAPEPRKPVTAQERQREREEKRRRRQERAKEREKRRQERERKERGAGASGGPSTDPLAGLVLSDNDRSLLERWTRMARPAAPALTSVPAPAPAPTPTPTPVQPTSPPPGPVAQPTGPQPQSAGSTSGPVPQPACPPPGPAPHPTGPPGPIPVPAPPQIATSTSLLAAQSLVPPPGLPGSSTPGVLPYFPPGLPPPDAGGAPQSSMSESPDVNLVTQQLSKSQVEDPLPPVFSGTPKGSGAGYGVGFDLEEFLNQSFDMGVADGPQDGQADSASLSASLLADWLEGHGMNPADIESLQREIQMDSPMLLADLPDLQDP
- measurement protocol: Inhibition of GST-tagged full length human ERK5 transfected in HEK293 cells assessed as inhibition of AP1 transcriptional activity after 24 hrs by dual luciferase reporter gene assay
pEC50: −log10 of the molar value.
parameter: pEC50

For reference, reported pEC50 for "COc1cc(C(=O)N2CCC(N3CCN(C)CC3)CC2)ccc1Nc1ncc2c(n1)N1CCc3cccc(c31)C(=O)N2C" stands at < 4.52
